- TARGET OR SYSTEM: human GPBAR1 receptor (Homo sapiens (Human))
- Sequence (Q8TDU6 whole entry): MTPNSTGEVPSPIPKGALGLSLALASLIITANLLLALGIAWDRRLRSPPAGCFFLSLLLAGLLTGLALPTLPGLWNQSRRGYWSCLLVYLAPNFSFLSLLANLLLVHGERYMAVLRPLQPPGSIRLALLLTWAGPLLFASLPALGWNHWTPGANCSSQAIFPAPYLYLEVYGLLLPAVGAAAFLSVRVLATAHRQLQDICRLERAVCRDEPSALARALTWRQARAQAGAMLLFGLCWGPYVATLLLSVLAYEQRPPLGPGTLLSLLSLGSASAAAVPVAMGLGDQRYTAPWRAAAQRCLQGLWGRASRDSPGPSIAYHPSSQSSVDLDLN
- TEST DETAILS: functional cAMP assay in CHO-dhfr(minus) cells expressing human GPBAR1 receptors
- EXPERIMENTAL PARAMETERS: CHO-dhfr(minus) cells expressing human GPBAR1, 30 min at 30° C.
Field: label. Allowed values: fulfilled (EC50 < 200 nM) or not fulfilled (EC50 >= 200 nM).

COc1c(F)cc(F)cc1-c1ccncc1N(C)C(=O)c1cc(C(F)(F)F)cc(C(F)(F)F)c1 ... fulfilled
COc1cc(F)ccc1-c1ccncc1N(CC(F)(F)F)C(=O)c1cc(C(F)(F)F)cc(S(C)(=O)=O)c1 ... not fulfilled
CN(C(=O)c1cc(C(F)(F)F)cc(C(F)(F)F)c1)c1cnccc1-c1ccncc1F ... not fulfilled
CN(C(=O)c1cc(C(F)(F)F)cc(C(F)(F)F)c1)c1cnccc1-c1ccccc1Cl ... fulfilled
COc1cc(F)ccc1-c1ccncc1N(CC1CCCCO1)C(=O)c1cc(C(F)(F)F)cc(S(C)(=O)=O)c1 (single isomer, unassigned; (-)) [Example 290] ... not fulfilled
Cc1ccccc1-c1ccncc1N(CCS(C)(=O)=O)C(=O)c1cc(C(F)(F)F)nc(C(F)(F)F)c1 ... fulfilled
Cc1ccccc1-c1ccncc1N(CC#N)C(=O)c1cc(C(F)(F)F)cc(C(F)(F)F)c1 ... fulfilled
